experimental.system: Neurogenic locus notch homolog protein 2 (Homo sapiens)
assay.explanation: Notch2 binders on small-molecule microarrays, primary screen, biochemical, small-molecule microarray, 635 nm fluorescence, stem cell growth factors (AID 1073)
condition.description: Notch2 binding, higher = more signal
composite z-score by entry:

compound | experimental.system | composite z-score
O=C(NCCO)C1=C[C@H](Oc2ccccc2I)[C@@H](O)[C@H](N(Cc2ccco2)C(=O)Cc2ccccc2)C1 | Neurogenic locus notch homolog protein 2 (Homo sapiens) | 0.299
COc1ccccc1CN1C(=O)c2ccccc2[C@@H](C(=O)NC2CC2)[C@@H]1c1ccc(CO)cc1 | Neurogenic locus notch homolog protein 2 (Homo sapiens) | 1.48
CCCC[C@@H]1C[C@H]1[C@@H](NC(=O)c1ccccc1)c1ccc(C(=O)OC)cc1 | Neurogenic locus notch homolog protein 2 (Homo sapiens) | -0.547
CN(C)CCCCCCNC(=O)[C@@H]1C[C@@H]2C(=O)N[C@@H](Cc3ccccc3)C(=O)N2[C@@H]1c1ccc(O)cc1 | Neurogenic locus notch homolog protein 2 (Homo sapiens) | 0.644
CC(C)C(=C=CC[C@H](O)c1ccc(OCCO)cc1)CCO | Neurogenic locus notch homolog protein 2 (Homo sapiens) | 0.255
CN1C=C(C(=O)OCCS(C)(=O)=O)C(C(=O)OCCS(C)(=O)=O)=CC(c2ccc(CO)cc2)=CC1C1CC1 (stereo not drawn) | Neurogenic locus notch homolog protein 2 (Homo sapiens) | -0.0701
O=C1C[C@@](C(=O)NCC(F)(F)F)(c2ccc([N+](=O)[O-])cc2)[C@@H](c2ccc(CO)cc2I)N1C1CCCCC1 | Neurogenic locus notch homolog protein 2 (Homo sapiens) | 1.46
CC(C)[Si]1(C(C)C)O[C@@H](c2ccccc2)c2cc(-c3ccc(-c4ccc(Cl)c(Cl)c4)o3)nc(-c3ccccc3)c21 | Neurogenic locus notch homolog protein 2 (Homo sapiens) | -0.0802

FYI, the data here is from PubChem BioAssay.
